Target: human vasopressin V2 receptor subtype (Homo sapiens)
Construct: host or cells: CHO cells, stably transfected (pZeoSV vector)
Sequence (P30518 whole entry): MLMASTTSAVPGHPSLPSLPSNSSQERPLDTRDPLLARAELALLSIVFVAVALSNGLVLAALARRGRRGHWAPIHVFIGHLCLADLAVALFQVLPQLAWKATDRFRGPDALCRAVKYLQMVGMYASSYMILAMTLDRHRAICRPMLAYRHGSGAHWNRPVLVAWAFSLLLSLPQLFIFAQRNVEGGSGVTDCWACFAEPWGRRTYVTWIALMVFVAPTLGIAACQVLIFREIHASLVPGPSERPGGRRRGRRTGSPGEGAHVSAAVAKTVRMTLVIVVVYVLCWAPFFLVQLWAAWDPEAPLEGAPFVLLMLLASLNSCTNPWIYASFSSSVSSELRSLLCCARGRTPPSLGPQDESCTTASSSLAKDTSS
Test: Vasopressin binding in CHO cell membranes expressing human vasopressin V2 subtype receptors
Conditions: 100 nM, [3H]arginine vasopressin

# compound, output.unit, V2 % inhibition @ 100 nM
records = [
    ("Cc1cc(C(=O)N2Cc3ccc(C(=O)N(C)Cc4cccnc4)n3Cc3ccccc32)ccc1C1=CCCCC1 [Example 11]", "%", 17),
    ("Cc1cc(C(=O)N2Cc3ccc(C(=O)NCc4cccnc4)n3Cc3ccccc32)ccc1C1=CCCCC1 [Example 6]", "%", 3),
    ("Cc1cc(C(=O)N2Cc3ccc(C(=O)N4CCN(c5ccncc5)CC4)n3Cc3ccccc32)ccc1C1=CCCCC1 [Example 12]", "%", 21),
    ("Cc1cc(C(=O)N2Cc3ccc(C(=O)NCc4ccccn4)n3Cc3ccccc32)ccc1C1=CCCCC1 [Example 5]", "%", 12),
]
